biological target: recombinant human brain type IIA Na+ channel expressed in Chinese hamster ovary cells (Homo sapiens, UniProt Q99250); test: Whole-cell voltage-clamp on voltage-gated sodium channels
Sequence (Q99250 whole entry): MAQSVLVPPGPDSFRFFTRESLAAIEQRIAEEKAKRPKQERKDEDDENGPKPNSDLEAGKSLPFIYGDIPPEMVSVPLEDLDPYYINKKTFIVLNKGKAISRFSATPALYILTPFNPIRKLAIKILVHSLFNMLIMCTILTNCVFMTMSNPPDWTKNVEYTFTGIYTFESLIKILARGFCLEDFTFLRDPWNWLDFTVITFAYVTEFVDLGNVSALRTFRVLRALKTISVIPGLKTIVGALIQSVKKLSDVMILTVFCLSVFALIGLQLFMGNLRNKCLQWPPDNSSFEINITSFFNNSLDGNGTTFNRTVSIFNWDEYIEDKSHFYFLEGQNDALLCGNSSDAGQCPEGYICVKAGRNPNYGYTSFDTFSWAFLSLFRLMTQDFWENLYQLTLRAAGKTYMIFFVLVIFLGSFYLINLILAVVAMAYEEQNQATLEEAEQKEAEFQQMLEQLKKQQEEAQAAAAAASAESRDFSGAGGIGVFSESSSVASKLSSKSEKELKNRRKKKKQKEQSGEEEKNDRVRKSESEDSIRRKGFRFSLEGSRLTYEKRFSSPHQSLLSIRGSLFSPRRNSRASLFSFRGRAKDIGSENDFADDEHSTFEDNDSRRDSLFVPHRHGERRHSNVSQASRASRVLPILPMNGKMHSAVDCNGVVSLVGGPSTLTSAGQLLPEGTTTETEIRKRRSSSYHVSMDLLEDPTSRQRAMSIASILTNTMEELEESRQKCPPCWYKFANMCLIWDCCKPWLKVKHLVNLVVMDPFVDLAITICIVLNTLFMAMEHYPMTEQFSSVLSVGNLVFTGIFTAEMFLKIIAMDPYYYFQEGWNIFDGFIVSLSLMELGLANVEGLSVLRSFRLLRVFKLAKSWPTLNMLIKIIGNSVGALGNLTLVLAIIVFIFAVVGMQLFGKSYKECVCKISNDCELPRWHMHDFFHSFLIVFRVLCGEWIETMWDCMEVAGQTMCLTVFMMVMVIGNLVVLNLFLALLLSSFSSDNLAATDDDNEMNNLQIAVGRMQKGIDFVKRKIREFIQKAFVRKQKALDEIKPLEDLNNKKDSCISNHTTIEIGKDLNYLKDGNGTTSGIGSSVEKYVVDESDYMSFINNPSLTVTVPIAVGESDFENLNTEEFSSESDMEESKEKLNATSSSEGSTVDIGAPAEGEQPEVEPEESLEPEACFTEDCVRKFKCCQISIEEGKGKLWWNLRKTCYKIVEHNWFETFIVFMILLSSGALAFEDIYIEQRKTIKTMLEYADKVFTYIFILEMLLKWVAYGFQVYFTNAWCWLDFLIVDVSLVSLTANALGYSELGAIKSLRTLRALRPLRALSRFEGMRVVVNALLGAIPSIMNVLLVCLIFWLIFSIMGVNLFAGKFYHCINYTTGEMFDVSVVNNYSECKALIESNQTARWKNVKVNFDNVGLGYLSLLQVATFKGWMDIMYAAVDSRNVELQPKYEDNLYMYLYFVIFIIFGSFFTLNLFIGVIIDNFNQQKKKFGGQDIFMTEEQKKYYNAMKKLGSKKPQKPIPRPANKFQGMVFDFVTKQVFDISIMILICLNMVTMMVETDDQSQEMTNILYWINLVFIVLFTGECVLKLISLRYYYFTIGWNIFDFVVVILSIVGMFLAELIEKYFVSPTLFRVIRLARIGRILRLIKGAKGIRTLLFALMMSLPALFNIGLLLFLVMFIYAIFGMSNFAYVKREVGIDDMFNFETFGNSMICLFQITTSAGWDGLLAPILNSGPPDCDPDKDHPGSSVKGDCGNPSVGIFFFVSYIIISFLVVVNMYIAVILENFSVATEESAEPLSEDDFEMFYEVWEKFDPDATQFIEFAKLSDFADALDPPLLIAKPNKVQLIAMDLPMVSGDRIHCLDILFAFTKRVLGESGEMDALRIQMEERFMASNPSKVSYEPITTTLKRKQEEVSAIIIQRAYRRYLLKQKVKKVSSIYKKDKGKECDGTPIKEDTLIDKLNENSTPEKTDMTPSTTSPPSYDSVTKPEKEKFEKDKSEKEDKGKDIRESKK
property.label: IC50 (µM)
# number only, unit µM dropped from output

## Input What IC50 value was documented for this compound, Nc1ncnnc1-c1cc(Cl)cc(Cl)c1Cl [compound of formula (I)] ?
## Output 785
